Listing of entries alongside the reported IC50, inhibition of pSTAT5.
Molecular target: T1, human Type 1 mutCALR on Ba/F3 cells expressing MPL and Type 1 mutCALR (human)
T1 chain: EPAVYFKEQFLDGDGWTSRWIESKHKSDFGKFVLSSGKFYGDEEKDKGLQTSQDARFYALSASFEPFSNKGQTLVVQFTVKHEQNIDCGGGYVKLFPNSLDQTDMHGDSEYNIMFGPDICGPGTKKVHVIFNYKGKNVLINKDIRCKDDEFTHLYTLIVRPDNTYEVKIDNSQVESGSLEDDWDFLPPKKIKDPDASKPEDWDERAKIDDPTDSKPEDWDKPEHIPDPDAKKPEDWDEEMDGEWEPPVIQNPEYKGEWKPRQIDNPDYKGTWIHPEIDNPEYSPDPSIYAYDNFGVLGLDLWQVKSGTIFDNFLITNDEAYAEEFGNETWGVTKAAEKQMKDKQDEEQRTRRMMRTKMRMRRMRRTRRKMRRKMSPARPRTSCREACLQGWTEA
Assay: cell-based or functional assay
observed-property: IC50, inhibition of pSTAT5

{"columns": ["binder", "recorded-result"],
 "data": [
  ["anti-mutCALR antibody clone 47 (antibody, human IgG1, lambda, V domains shown) VH: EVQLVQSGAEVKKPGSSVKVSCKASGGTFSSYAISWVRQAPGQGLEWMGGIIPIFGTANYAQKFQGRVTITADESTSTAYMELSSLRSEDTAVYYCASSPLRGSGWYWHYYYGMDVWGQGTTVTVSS VL: SYELTQPPSVSVAPGKTARITCGGNKIGTKSVHWYQQKPGQAPVLVIYRDSNRPSGIPERFSGSNSGNTATLTISRAQAGDEADYYCQVWDSSTVVFGGGTKLTVLG", "10 µg/mL"],
  ["anti-mutCALR antibody clone 21 (antibody, human IgG1, lambda, V domains shown, human IgG1) VH: EVQLVQSGAEVKKPGASVKVSCEVSGYTLTELSMQWVRQAPGKGLEWMGGFDPDDGETMYAEKFQGRLTVTEDTSTDTVYMELRSLTSEDTALYFCATSPGYDFFDYWGQGTLVTVSS VL: SYVLTQPPSVSVAPGQTARVSCGGNNIGSKSVNWYRQKPGQAPVLVIYDDSDRPSGIPERFSGSNSGNTATLTISRVEAGDEADYYCQVWDSSNDLLIFGGGTKLTVLG", "0.032 µg/mL"],
  ["anti-mutCALR antibody clone 23 (antibody, human IgG1, lambda, V domains shown, human IgG1) VH: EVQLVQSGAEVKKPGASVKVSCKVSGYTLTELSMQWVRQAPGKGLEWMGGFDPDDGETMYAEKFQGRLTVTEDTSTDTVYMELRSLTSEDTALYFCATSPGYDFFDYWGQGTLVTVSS VL: SYVLTQPPSVSVAPGQTARITCGGNNIGIKSVHWYQQKPGQAPVLVVYDDSDRPSGIPERFSGSNSGNTATLTINRVEAGDEADYYCQVWDSSNDLLIFGGGTKLTVLG", "0.03 µg/mL"],
  ["anti-mutCALR antibody clone 35 (antibody, human IgG1, lambda, V domains shown, human IgG1) VH: QVQLVQSGAEVKKPGATVKISCKVSGYSFTDYFIHWVQQAPGKGLAWVGLVDPEDGETIYAERFQGRVTITADTSTDTAYMELSSLRSEDTAVYYCATPGGILTDPDAFDIWGQGTMVTVSS VL: QSALTQPASVSGSPGQSITISCTGTSSDVGGYNYVSWYQQHPGKAPKLMIYEVSNRPSGVSNRFSGSKSGNTASLTISGLQAEDEADYYCSSYTSSSTPYVFGTGTKVTVLG", "0.444 µg/mL"],
  ["anti-mutCALR antibody clone 44 (antibody, human IgG1, lambda, V domains shown) VH: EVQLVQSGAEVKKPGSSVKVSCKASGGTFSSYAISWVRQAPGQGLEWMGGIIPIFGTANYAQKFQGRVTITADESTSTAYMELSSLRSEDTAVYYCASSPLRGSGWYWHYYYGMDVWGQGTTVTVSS VL: SYVLTQPPSVSAAPGKTARISCGGNNIRSKSVHWYQQKAGQAPVLVIYQDSKRPSGIPERFSGSNSGNTATLTISGTQAMDEADYYCQAWDSNTVVFGGGTKLTVLG", "7 µg/mL"]
]}
